# tested_on: hCB2 (Homo sapiens, UniProt P34972)
# Sequence (P34972 whole entry): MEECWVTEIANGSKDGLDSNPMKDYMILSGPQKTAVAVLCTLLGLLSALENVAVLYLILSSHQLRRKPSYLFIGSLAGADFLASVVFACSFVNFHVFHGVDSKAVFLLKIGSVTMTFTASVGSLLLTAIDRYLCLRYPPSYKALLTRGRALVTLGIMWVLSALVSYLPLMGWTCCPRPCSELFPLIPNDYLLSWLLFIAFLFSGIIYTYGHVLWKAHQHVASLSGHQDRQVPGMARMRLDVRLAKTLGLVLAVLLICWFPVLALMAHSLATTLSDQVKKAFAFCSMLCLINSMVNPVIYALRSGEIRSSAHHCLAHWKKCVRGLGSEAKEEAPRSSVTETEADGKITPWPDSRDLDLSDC
# assay_name: hCB2 radioligand binding assay ([3H]-CP 55,940 displacement)
# condition_summary: hCB2 IC50 (CP displ, nM, HEK), HEK membranes
Each entry below lists one item and its recorded IC50 value.

# example entries with known answers
CCCn1c(C(=O)c2cn(CC3CCOCC3)c3ccccc23)cc2ccsc21 [Compound I-41] = < 100 nM
CCCn1c(C)c(C(=O)c2c(C)n(CCC)c3sccc23)c2ccccc21 [Compound I-7] = 100 to 1000 nM
CCCn1c(C(=O)c2c3c(n(CCN4CCOCC4)c2C)CCCC3)cc2ccsc21 [Compound I-79] = < 100 nM

In the following, a different compound is considered.
Prompt line: Entry CCn1c(C(=O)c2c(C)n(CCN3CCOC3=O)c3ccccc23)cc2ccsc21 [Compound I-25] , system hCB2 (Homo sapiens, UniProt P34972): what IC50 was measured?
Response line: < 100 nM
